tested on: RXF 393 renal; experiment: NCI-60 one-dose screen, 48 h (100 = growth as untreated, 0 = no growth, -100 = all killed); details: 10 µM unless noted
Compounds without any hit were thinned out: in the full panel of roughly 83,000, 20% have a hit.
Assign class by growth: not lower than 60% means y; lower than 60% means n.

Given the entry CSc1nc(Nc2ccc(S(=O)(=O)Nc3ccon3)cc2)c(C#N)c(-c2ccc(Cl)cc2)n1 , answer whether its growth meets or surpasses 60%. y

Given the entry COc1cc(/C=C/C(=O)CC(=O)/C=C/c2ccc(OC(=O)C3C4CC5CC(C4)CC3C5)c(OC)c2)ccc1OC(=O)C1C2CC3CC(C2)CC1C3 (stereo unspecified) , answer whether its growth meets or surpasses 60%. y

Given the entry O=[N+]([O-])c1ccc(N=Nc2c(Cl)cc(O)cc2Cl)cc1 , answer whether its growth meets or surpasses 60%. n

Given the entry BrC1CC(Br)c2c1c1c(c3c2C(Br)CC3Br)C(Br)CC1Br (stereo unspecified) , answer whether its growth meets or surpasses 60%. y

Given the entry COc1ccc(C(=O)/C=C/c2cccc(Nc3ccnc4cc(Cl)ccc34)c2)cc1 , answer whether its growth meets or surpasses 60%. n

Given the entry CS(=O)(=O)N1CCN(Cc2cc3nc(-c4cccc5[nH]ncc45)nc(N4CCOCC4)c3s2)CC1 (tested in a mixture with another compound) , answer whether its growth meets or surpasses 60%. n

Given the entry CCOC(=O)/C(=C/CC/C(C)=C/CC/C(C)=C/CCc1ccoc1)CC(=O)N1CCCCC1 , answer whether its growth meets or surpasses 60%. y

Given the entry CC(=O)Nc1c(Cl)cc2c(c1Cl)Cc1ccccc1-2 , answer whether its growth meets or surpasses 60%. y

Given the entry CCOC(=O)c1cc2oc(/C=C/c3cc(=O)c4cc(Cl)ccc4o3)cc2[nH]1 , answer whether its growth meets or surpasses 60%. n

Given the entry CC(C)Sc1nc(-c2ccc(Br)cc2)c(C#N)c(N2CCCCC2)n1 , answer whether its growth meets or surpasses 60%. y

Given the entry O=C(CSc1nnc(-c2cc(-c3ccccc3)nc3ccccc23)o1)c1ccc(Br)cc1 , answer whether its growth meets or surpasses 60%. y

Given the entry COCCOCCOCCOCCOc1ccc2c(c1)C(=O)c1nc3ncccc3c(=O)n1-2 , answer whether its growth meets or surpasses 60%. n

Given the entry COc1ccc2c3c(ccc2c1)C(=O)/C(=C\O)CC3 , answer whether its growth meets or surpasses 60%. y

Given the entry COc1cc(/C=N/NC(=O)c2ccc(C(F)(F)F)nc2Nc2cc(Cl)ccc2C)cc(OC)c1OC , answer whether its growth meets or surpasses 60%. y

Given the entry Oc1ccccc1/C=N/N1CCCCCC1 , answer whether its growth meets or surpasses 60%. y

Given the entry CCN(CC)CCSc1ncnc2c1cnn2-c1ccc(S(N)(=O)=O)cc1 , answer whether its growth meets or surpasses 60%. n

Given the entry CCOc1nc(-c2ccco2)n2nc(-c3ccco3)cc2n1 , answer whether its growth meets or surpasses 60%. y

Given the entry N#Cc1ccccc1C#Cc1ccccc1C#Cc1ccc(OCCCCCCOc2ccc(C#Cc3ccccc3C#Cc3ccccc3C#N)cc2)cc1 , answer whether its growth meets or surpasses 60%. y

Given the entry COc1ccc(-c2c3c(N)nc(-c4ccncc4)nc3nc3c2c(C)nn3-c2ccccc2)cc1 , answer whether its growth meets or surpasses 60%. y

Given the entry O=[N+]([O-])c1ccc2[nH]cc(-c3c4ccccc4cc4[nH]c5ccc([N+](=O)[O-])cc5c34)c2c1 , answer whether its growth meets or surpasses 60%. n

Given the entry CN1CCN(c2nc3scc(-c4ccccc4)c3c(=O)[nH]2)CC1 , answer whether its growth meets or surpasses 60%. y

Given the entry O=C(Nc1ccc(Cl)cc1)Nc1ccccc1CNc1nc(Nc2ccc(OCCN3CCCC3)cc2)ncc1Cl , answer whether its growth meets or surpasses 60%. n

Given the entry O=C1NC(=O)/C(=C\c2ccco2)S1 , answer whether its growth meets or surpasses 60%. y

Given the entry COc1cnc2c(c1)C(=O)c1c-2n(CCCNC(C)C)c(=O)c2cc(F)ccc12 , answer whether its growth meets or surpasses 60%. n

Given the entry O=C(CC(C(=O)c1ccccc1)N1CCN(Cc2ccccc2)CC1)c1ccccc1 (stereo unspecified) , answer whether its growth meets or surpasses 60%. y

Given the entry CCOC1Oc2ccccc2C(=O)/C1=N/c1nccs1 (stereo unspecified) , answer whether its growth meets or surpasses 60%. y

* * *

system: HCT-116 colon; assay: NCI-60 one-dose screen, 48 h (100 = growth as untreated, 0 = no growth, -100 = all killed); conditions: 10 µM unless noted
The panel holds about 83,000 compounds, 20% with a hit somewhere; the sample as a whole holds those more often. The source made the active and inactive calls. The calls were made as follows: active = growth percent below 10; inactive = the rest.
Assign growth to each entry below.

Briefly, growth measured for COc1cc(/C=C2\CN(S(=O)(=O)c3ccc(C)cc3)C/C(=C\c3cc(CN4CCOCC4)c(O)c(OC)c3)C2=O)cc(CN2CCOCC2)c1O : -83.3% (active)

Briefly, growth measured for CCCCCCCCCCNCCSS(=O)(=O)O : 52.9% (inactive)

Briefly, growth measured for COc1ccc(C(=O)/C=C/c2ccc(C)cc2)cc1OC : 30.1% (inactive)

Briefly, growth measured for COc1ccc2[nH]c(=O)c(CNc3ccc(Nc4nccc(-c5ccc(Cl)cc5)n4)cc3)cc2c1 : 91.1% (inactive)

Briefly, growth measured for CN1CCC[C@@H]1CCO[C@](C)(c1ccccc1)c1ccc(Cl)cc1 : 47.9% (inactive)

Briefly, growth measured for O=C1C=CC(=O)N1c1ccccn1 : 96.8% (inactive)

Briefly, growth measured for CCOC(=O)C1C(=O)NC(C(=O)OCC)(C(=O)OCC)C1CC (centres undefined) : 110% (inactive)

Briefly, growth measured for Cc1ccc(C(=O)Cc2ccccc2)c(O)c1 : 108% (inactive)

Briefly, growth measured for COc1ccc(C(=O)COc2cccc(/C=C3\CSc4ccc(Cl)cc4C3=O)c2)cc1 : 53.9% (inactive)

Briefly, growth measured for C[C@@H]1CN(c2nc3c(cc2F)c(=O)c(C(=O)O)cn3C(C)(C)C)C[C@H](C)N1 : 92.2% (inactive)

Briefly, growth measured for COc1ccc(OC)c2c1CCC1(C2)NC(=O)NC1=O (centres undefined) : 107% (inactive)

Briefly, growth measured for CCN1CCN(c2nc(NNC(=O)Cc3ccccc3)nc(N3CCN(C(c4ccccc4)c4ccccc4)CC3)n2)CC1 : 28.3% (inactive)

Briefly, growth measured for O=C(CN1CCN(c2ccc(Cl)cc2)CC1)N1CCN(c2nnc(-c3ccccc3)c(-c3ccccc3)n2)CC1 : 16.7% (inactive)

Briefly, growth measured for CCc1ccc(-c2nc(SCC(=O)NC3CCCCC3)n[nH]2)cc1 : 74.2% (inactive)

Briefly, growth measured for COc1cccc(/C=N\NC(=O)c2ccncc2)c1O : 11.6% (inactive)

Briefly, growth measured for COc1ccc(-c2cc(-c3cccnc3)nc3sc(C(=O)Nc4ccccc4)c(N)c23)cc1OC : 50.5% (inactive)

Briefly, growth measured for NC(=N\N=C/Cc1ccccc1)/C(N)=N\N=C\Cc1ccccc1 : 108% (inactive)

Briefly, growth measured for COc1ccc(NC(=O)c2ccc(-c3ccccc3)cc2)c(C(N)=O)c1 : 106% (inactive)

Briefly, growth measured for O=c1sc2ncnc3ncn1c32 : 50.9% (inactive)

Briefly, growth measured for O=C(Nc1ccccc1OC(=O)c1ccccc1)c1ccccc1 : 9.26% (active)

Briefly, growth measured for O=c1c2c(=NCCCN3CCCC3)cc3c(=O)n(CCCN4CCCC4)c(=O)c4c(NCCCN5CCCC5)cc(c(O)n1CCCN1CCCC1)c2c4-3 : 2.72% (active)

Briefly, growth measured for O=Cc1ncc(-c2ccc(C(F)(F)F)cc2)c(NC2CCCCCC2)n1 : -94.3% [100 µM] (active)

Briefly, growth measured for O=C(Nc1ccccc1)P(=O)(O)c1ccccc1 : 98.1% (inactive)

Briefly, growth measured for COC(=O)[C@H](CCCCNC(=O)OCc1ccccc1)NC(=O)[C@@H](NC(=O)Nc1cc(C(F)(F)F)cc(C(F)(F)F)c1)C(C)C : -86.6% [100 µM] (active)

Briefly, growth measured for COc1c(O)cc2c(c1CC=C(C)C)OC(=O)c1c(cc(O)c(CC=C(C)C)c1O)O2 : 26.8% (inactive)

Briefly, growth measured for Cc1ccc(/C=C(/C#N)n2nnc3ncccc32)cc1 : 4.5% (active)

Briefly, growth measured for c1ccc2c(-c3nc4ccccc4[nH]3)cccc2c1 : 16.7% (inactive)

Briefly, growth measured for c1ccc2nc(N/N=C3\CCCCC3C3CCCCC3)ccc2c1 (centres undefined) : 6.79% (active)

Briefly, growth measured for COC(=O)[C@H](Cc1cn(C)cn1)NC(=O)[C@@H](NC(=O)Nc1cc(C(F)(F)F)cc(C(F)(F)F)c1)C(C)C : -91.6% [100 µM] (active)

Briefly, growth measured for Cc1ccc(S(=O)(=O)N2CCN(C(=O)CSc3nc4ccc(C)cc4[nH]3)CC2)cc1 : 103% (inactive)

Briefly, growth measured for COc1ccc2c(c1)C(=Nc1cc(OC)c(OC)c(OC)c1)C(=O)N2 : 51% (inactive)

Briefly, growth measured for COc1cccc(-c2nc(-c3ccc(N)cc3)co2)c1 : 91.5% (inactive)

Briefly, growth measured for Cc1cn(C(C=O)OC(C=O)CO)c(=O)[nH]c1=O (centres undefined) : 103% (inactive)

Briefly, growth measured for Nc1ccccc1C#Cc1ccccc1C#Cc1ccc(OCCCCCCOc2ccc(C#Cc3ccccc3C#Cc3ccccc3N)cc2)cc1 : 110% (inactive)

Briefly, growth measured for COc1ccc(Cl)cc1Nc1nc(C(F)(F)F)ccc1C(=O)N/N=C/c1c(Cl)cccc1Cl : 51.4% (inactive)

Briefly, growth measured for COc1ccc(-c2nc3sc4c(c3c(=O)[nH]2)CCCCCC4)cc1 : 33.9% (inactive)

Briefly, growth measured for COc1cc(/C=C/C(=O)c2c(C)n([O-])c3ccc(Cl)cc3[n+]2=O)cc(OC)c1OC : 62.6% (inactive)

Briefly, growth measured for OC(c1cc(-c2cccc(Cl)c2)nc2ccccc12)C1CCCCN1 (centres undefined) : -89.8% (active)

Briefly, growth measured for O=C1NC(=O)/C(=C\c2ccco2)S1 : 108% (inactive)
